Reference source: ChEMBL document CHEMBL1201862

GI50 values for the compounds below.
# Test system: UO-31
# Method Summary: NCI tumour cell line growth inhibition, 48 h
The source made the active and inactive calls. Rule as the data show it: active = GI50 up to about 1.1 µM and inactive = higher.
Experimental Endpoint: GI50

{"Item Smiles": "C[Si](C)(c1ccccc1)C1CC(=O)CC(=O)C1", "Target Or System": "UO-31", "Experimental Endpoint": "GI50", "Measured Result": "19.9 µM (inactive)"}
{"Item Smiles": "COc1cc(C2C(C(=O)Nc3ccccc3)=C(C)NC(C)=C2C(=O)Nc2ccccc2)ccc1O", "Target Or System": "UO-31", "Experimental Endpoint": "GI50", "Measured Result": "97.1 µM (inactive)"}
{"Item Smiles": "c1ccc2c(c1)CCN2CCN1CCc2ccccc21", "Target Or System": "UO-31", "Experimental Endpoint": "GI50", "Measured Result": "> 10 µM (inactive)"}

###

# System: HT-29
# Method Summary: NCI tumour cell line growth inhibition, 48 h
Activity calls are given as the source filed them. Rule as the data show it: active = GI50 up to about 1.1 µM and inactive = higher.
Experimental Endpoint: GI50

{"Compound": "CC(C)=C[C@@H]1C[C@H](C)c2c(O)cc(C)c3c2C1=C(C)C(=O)C3=O", "Measured Result": "19.4 µM (inactive)"}
{"Compound": "COC(=O)N1CC2(CO)C3CC=C(C(=O)Nc4ccccc4Br)C2C1C3Br (stereo unspecified)", "Measured Result": "> 50 µM (inactive)"}
{"Compound": "O=C1c2cccc(O)c2C(=O)c2c(OC3OC(CO)C(O)C(O)C3O)cccc21 (stereo unspecified)", "Measured Result": "33.3 µM (inactive)"}
{"Compound": "CN(CC#N)C(=O)Cc1ccc([N+](=O)[O-])cc1", "Measured Result": "> 10 µM (inactive)"}
{"Compound": "CC(C)(C)SC1=CCC[C@@H](P(=O)(c2ccccc2)c2ccccc2)[C@@H]2CCC[C@@H]12", "Measured Result": "14.2 µM (inactive)"}
{"Compound": "CN(C(=O)C12C3C4C5C3C1(C(=O)O)C5C42)C(C)(C)C (stereo unspecified)", "Measured Result": "78.5 µM (inactive)"}
{"Compound": "C=C[C@@]1(C)CC2(C=C(CO)C(O)O2)Oc2c1c(=O)oc1cccc(C)c21 (stereo partly specified)", "Measured Result": "4.69 µM (inactive)"}
{"Compound": "Clc1ncnc(Cl)c1Cl", "Measured Result": "> 100 µM (inactive)"}
{"Compound": "N#Cc1c(Cl)cccc1Oc1ccc(S(=O)(=O)/N=C(\\NN)Nc2ccc(Cl)cc2)cc1", "Measured Result": "30.3 µM (inactive)"}
{"Compound": "C/C=C\\C(CC(=O)NCCc1c[nH]c2ccccc12)CC(=O)OC (stereo unspecified)", "Measured Result": "> 100 µM (inactive)"}
{"Compound": "Cc1ccc(C2=CC(=O)c3ccccc3C2=O)n1-c1ccccc1", "Measured Result": "> 100 µM (inactive)"}

###

# System: HCT-116
# Method Summary: NCI tumour cell line growth inhibition, 48 h
Activity calls are given as the source filed them. No stated cut-off is given here; in the data, active = GI50 up to about 1.1 µM and inactive = higher.
GI50 values for the molecules below.
Experimental Endpoint: GI50

{"Molecule": "COC(=O)C1=C(O)C(O)=C(C(=O)OC)CC1", "Measured Result": "15.1 µM (inactive)"}
{"Molecule": "Cc1cccc2c1CC(C1OC(=O)c3c(C)cccc31)C2=O (stereo not given)", "Measured Result": "> 100 µM (inactive)"}
{"Molecule": "Cc1nn2c(=O)c([N+](=O)[O-])c(/C=C/c3ccc(F)cc3)nc2s1", "Measured Result": "6.41 µM (inactive)"}
{"Molecule": "COc1cccc(NC(=O)CC(=O)NN2C(=O)/C(=C/c3ccc(N(CCC#N)CCC#N)cc3)N=C2c2cc([N+](=O)[O-])ccc2Cl)c1", "Measured Result": "> 100 µM (inactive)"}
{"Molecule": "COc1nc2c(c(O)c(C)c(=O)n2OC2OCC(OC(C)=O)C(OC(C)=O)C2OC(C)=O)c(=O)n1C (stereo not given)", "Measured Result": "> 100 µM (inactive)"}
{"Molecule": "C[Si](C)(c1ccccc1)C1CC(=O)CC(=O)C1", "Measured Result": "> 100 µM (inactive)"}
{"Molecule": "CC(Nc1ncc2c(n1)-c1ccccc1OC2)C(=O)O (stereo not given)", "Measured Result": "> 100 µM (inactive)"}
{"Molecule": "COC(=O)c1ccc(OCCn2nnc(C(=O)NN)c2C(=O)NN)cc1", "Measured Result": "> 100 µM (inactive)"}
{"Molecule": "CC(C)CC1N=C(OCc2ccccc2)OC1=O (stereo not given)", "Measured Result": "> 100 µM (inactive)"}
{"Molecule": "O=C1CN(c2ccccc2)C(=O)CN1NCNN1CC(=O)N(c2ccccc2)CC1=O", "Measured Result": "> 100 µM (inactive)"}
